System: RXF 393 renal
assay_info: NCI tumour cell line growth inhibition, 48 h
// reported TGI for each item listed

Would you please look over these solved cases?
O=C1CCCC[C@H]1C(O)CC1CC(=O)N(c2ccccc2)C(=O)C1 (stereo not given in full) = > 100 µM
COc1ccc(/C=C(/c2ccccc2)c2c(C)cc(C)c(/C(=C\c3ccc(OC)cc3)c3ccccc3)c2N=Nc2cc(C)cc(C)c2)cc1 = > 95.9 µM

Field request: TGI | item: COc1ccc(C(=O)OC2C(OC3C(O)COC(O[C@H]4C[C@H]5[C@@H]6CC=C7C[C@@H](O)CC[C@]7(C)[C@H]6CC[C@]5(C)[C@H]4[C@H](C)C(=O)CCC(C)C)C3OC(C)=O)OCC(O)C2O)cc1 (stereo not given in full)
< 0.003 µM

Entry O=c1cc(O)c2c(O)cc(O)cc2o1 : reported TGI = ?
> 100 µM

Can you share its TGI? I mean this molecule: CC12CCC(O)CC1=CCC1C2CCC2(C)C(c3cccnc3)=CCC12 (stereo not given)
> 100 µM

----------
Tested on: KM12 colon
assay_info: NCI tumour cell line growth inhibition, 48 h; in the data active = GI50 below about 0.43 µM; inactive = the rest
Result category, one only: YES (active), NO (inactive)

Please review the following examples before continuing.
CCOC(=O)c1nc2cc(C(F)(F)F)ccc2[n+]([O-])c1C = NO
CN(C)CCNc1nc2ccccc2c2occc12 = NO
CC(=O)c1ccc2c(c1)N(CCCN(C)C)c1ccccc1S2 = NO

Check the results log: what was the call for CC1(C)N=C(N)N=C(N)N1c1ccc(Cl)c(Cl)c1 ?
NO

Test call, this molecule: Cc1cc2c(cc1C)[n+](Cc1ccc3ccccc3n1)cn2Cc1ccc2ccccc2n1
NO

Give the logged outcome of this assay for the following molecule: O=C1N[C@H]2[C@H](O)[C@H](O)[C@@H](O)[C@H](O)[C@@H]2c2cc3c(c(O)c21)OCO3
YES

----------
Tested on: ACHN renal
assay_info: NCI tumour cell line growth inhibition, 48 h
metric: GI50

A selection of reference data follows.
Cc1cc(O)cc(C)c1/C=C/c1cncc(C(=O)OC(C)(C)C)c1 = 12.7 µM
COc1ccc(-c2nc(-c3nc4ccc(C(F)(F)F)cc4[nH]3)c3ccccn23)cc1 = 63.5 µM
CC(=O)c1cccc(NC(=O)c2ccc(NC3=C(Cl)C(=O)N(Cc4ccccc4)C3=O)cc2)c1 = 22.7 µM
CCCCCSC1C2C(=O)C(Br)=CC13CCNc1c(O)c4c5c(c13)=[N+]2CCC=5C=N4 (stereo not given) = 1.75 µM
CCN1C(=O)N(CC)C2C1NN=c1s/c(=C\c3cccc([N+](=O)[O-])c3)c(=O)n12 (stereo not given) = 0.0662 µM

Identify the measured GI50 of Cn1c2ccccc2c2nnc(NNCc3ccccn3)nc21 for ACHN renal.
0.305 µM

API: value(readout=GI50, system=ACHN renal) for record CCOC(=O)c1nc2cc(C(F)(F)F)ccc2[n+]([O-])c1C
> 100 µM

Under ACHN renal: GI50 value of COc1ccc(C#CC2=C(c3cc(OC)c(OC)c(OC)c3)C(=O)OC2)cc1 ?
5.89 µM

API: value(readout= GI50, system= ACHN renal, query= COc1cc(C2C3=C(COC3=O)Nc3cc4c(cc32)OCO4)cc2c1OCO2 (stereo not given) )
0.357 µM

Provide the documented GI50 with ACHN renal as the system for N=C(N)SCc1ccc([N+](=O)[O-])cc1[N+](=O)[O-]
8.04 µM

Short answer please: GI50, ACHN renal, entry C[C@]12CC[C@@H]3c4ccc(O)cc4CC[C@H]3[C@@H]1CC[C@@H]2NS(=O)(=O)c1ccc2ccccc2c1
2.95 µM

Test system ACHN renal; read-out GI50; what value for CN(C)c1ccc(/C=N/NC(=O)c2cccc3ccccc23)c(Cl)c1 ?
5.65 µM

// lookup GI50 | system=ACHN renal | key= COc1ccc2nccc(/C=C/c3ccnc4ccc(OC)cc34)c2c1
> 71 µM

Return GI50 measured with ACHN renal given this compound: O=C(COc1ccc(-c2nc3cc(Cl)c(Cl)cc3[nH]2)cc1)N=Nc1c(O)[nH]c2ccccc12
3.71 µM

Lookup: GI50 / ACHN renal / COc1ccc(Oc2cc(NCCC(F)(F)F)c3ncc(-c4ccc(C(=O)NC5CC5)c(C)c4)n3n2)c(F)c1F
0.304 µM

----------
Reported TGI values for a set of compounds
Tested on: HCT-116 colon
assay_info: NCI tumour cell line growth inhibition, 48 h

COC[C@@H](N=CN1CCc2cc(OC)c(OC)cc2C1)C(C)(C)C = > 100 µM
Cc1ccc2c(CC(=O)O)cc(=O)oc2c1 = > 100 µM
O=C1C2CC=CCC2C(=O)N1n1c(Cc2ccccc2)n[nH]c1=O (stereo unspecified) = > 100 µM
O=S(=O)(NCCO)c1cc[c]([Sb](=[O])([OH])[OH])cc1 = > 100 µM

Look up TGI for this compound: COC(=O)c1ccc(C)cc1CC1Cc2c(C)cccc2C1=O (stereo unspecified)
15.4 µM

# lookup: TGI of C[C@]12CCc3sc(-c4cccc(F)c4)nc3C1=CC[C@@H]1[C@@H]2CC[C@]2(C)C(=O)CC[C@@H]12
3.56 µM

Fill in the blank: the reported TGI of CC(C)(C)OC(=O)NCCCCCCCCCCn1c2c(c3ccccc3c1=O)C(=O)c1ccccc1-2 is ____.
> 100 µM

Given the compound NC(=O)SCC(=O)Nc1ccc2ncccc2c1 , what is its reported TGI?
> 100 µM

----------
Test system: DU-145 prostate
assay_info: NCI tumour cell line growth inhibition, 48 h
This section presents compounds with their documented TGI values.

Oc1ccccc1-c1nn2c(CCCCCCCCc3nnc4sc(-c5ccccc5O)nn34)nnc2s1 = > 75.5 µM
Cc1ncc(-c2ccnc(Nc3ccc(S(C)(=O)=O)cc3)n2)n1C(C)C = > 10 µM
COc1ccc(-c2nc(-c3nc4ccc(C(F)(F)F)cc4[nH]3)c3ccccn23)cc1 = > 100 µM
Cc1ccc(NC(=O)/C(=N\NC(N)=O)c2c(O)c3ccccc3[nH]c2=O)cc1 = > 100 µM
COc1ccc(N(C(=O)NCCO)c2ccccc2)cc1 = > 100 µM

Kindly consider the entry below.
Reported TGI for DU-145 prostate, given CCOC(=O)c1cn2c(ccc3sc4ccccc4c(=O)c32)n1 ?
> 100 µM

----------
Test system: UACC-257 melanoma
assay_info: NCI tumour cell line growth inhibition, 48 h; in the data active = GI50 below about 0.43 µM; inactive = the rest
Lab note: assign the record to one of 1 = active, -1 = inactive

COc1cc(NC(C)CCCN)c2ncccc2c1Sc1ccc(Cl)cc1 (stereo not drawn) = -1
COC(=O)[C@@H](OC)[C@@H]1Cc2cc3cc(OC4CC(OC5CC(O)C(O)C(C)O5)C(O)C(C)O4)c(C)c(O)c3c(O)c2C(=O)[C@H]1OC1CC(OC2CC(OC3CC(C)(O)C(O)C(C)O3)C(O)C(C)O2)C(O)C(C)O1 (stereo partly drawn) = 1
Oc1ccccc1C=Nc1ccccc1N=Cc1ccccc1O.[Cu+2] = -1
Cc1cc2c(cc1C)[n+](Cc1ccc3ccccc3n1)cn2Cc1ccc2ccccc2n1 = -1
CCN(Cc1cccc(F)c1F)c1ccc(CO)c(Cl)c1 = 1

Returns: the outcome recorded for C[C@]12CCc3sc(-c4cccc(F)c4)nc3C1=CC[C@@H]1[C@@H]2CC[C@]2(C)C(=O)CC[C@@H]12 in this assay.
-1

Hey, what did the test say about CC(=O)c1cccc(NC(=O)c2ccc(NC3=C(Cl)C(=O)N(Cc4ccccc4)C3=O)cc2)c1 ?
-1

Check the results log: what was the call for C[C@]12CC[C@@H]3c4ccc(O)cc4CC[C@H]3[C@@H]1CC[C@@H]2NS(=O)(=O)c1ccc2ccccc2c1 ?
-1

What was the test verdict on CCN(CC)c1ccc(/C=C/C=C(/C#N)C(N)=S)cc1 ?
-1

Field: outcome | Entry: O=S(=O)(NCCO)c1cc[c]([Sb](=[O])([OH])[OH])cc1
-1

----------
The following compounds are listed with their measured TGI values.
Test system: LOX IMVI melanoma
assay_info: NCI tumour cell line growth inhibition, 48 h

Given the compound C#C/C=C/CC1OC(C(Br)CC)CC(Br)C2CC1O2 (configuration not stated) , what is its reported TGI?
3.39 µM

Can you look up the measured TGI of CNCCCn1c2c(c3ccc(F)cc3c1=O)C(=O)c1cc(OC)cnc1-2 for me?
0.375 µM

Quick one: TGI for CC(OC(=O)N(N(CCCl)S(C)(=O)=O)S(C)(=O)=O)c1ccc([N+](=O)[O-])cc1 (configuration not stated) ?
> 100 µM

----------
// values below are reported TGI
Test system: CAKI-1 renal
assay_info: NCI tumour cell line growth inhibition, 48 h

Here's what some known entries look like.
Clc1ccc(C2=NOC3C4CCC(C4)C23)cc1 (stereo unspecified) = > 100 µM
COc1cc(NC(C)CCCN)c2ncccc2c1Sc1ccc(Cl)cc1 (stereo unspecified) = 12.3 µM
CNC(=O)c1cc2c(Oc3ccc(NC(=S)NC(=O)Cc4ccccc4)cc3F)ccnc2cc1OC = > 100 µM
Cc1cc2c(=O)[nH]c(N)nc2nc1C = > 100 µM
Cc1cc(O)cc(C)c1/C=C/c1cncc(C(=O)OC(C)(C)C)c1 = > 25 µM

# lookup: TGI of O=C1c2c(c3c4ccccc4[nH]c3c3[nH]c4ccccc4c23)C(=O)N1Cc1ccccc1
10.2 µM

Can you look up the measured TGI of CCOC(=O)c1nc2cc(C(F)(F)F)ccc2[n+]([O-])c1C for me?
> 100 µM

Which TGI value is on record for Cc1cn2c(/C=N/N=C(N)N)c(-c3ccsc3)nc2s1 ?
32.7 µM

If you can, please state the reported TGI value of CC1=C/C(=C2/N=C(N(C)C)SS2)C(C)=N1 .
> 100 µM

Returns the measured TGI for the input compound. Input: CSc1nc(N)c2c(n1)NC(c1ccccc1)C1CCc3ccccc3C1=N2 (stereo unspecified)
> 100 µM

May I ask what TGI has been recorded for Oc1c(CNCCNCc2cc(Cl)cc(Cc3ccccc3)c2O)cc(Cl)cc1Cc1ccccc1 ?
18.7 µM
